Cited source for all entries: ChEMBL document CHEMBL1799927

Experimental protocol: Clearance in mouse
Assay type: ADME, organism-based
Test settings: in vivo
Measurement label: clearance (L/h/kg)
Field: numeric (L/h/kg). Do not append units.

Query: // fetch clearance given entry CSc1cn2c(-c3cn[nH]c3)cnc2c(Nc2cc(C)ns2)n1
Response: 5.34

====

Experimental protocol: cells
Type: cell-based
Test settings: Homo sapiens, HCT-116, 1 h
Measurement label: EC50 (nM)
Field: numeric (nM). Do not append units.

Worked examples, 4 compounds total:
>>> assay_value("Cc1cc(Nc2nc(Sc3ccc(F)cc3)cn3c(-c4cn[nH]c4)cnc23)sn1")
2500
>>> assay_value("CSc1cn2c(-c3cn[nH]c3)cnc2c(Nc2cc(C)ns2)n1")
600
>>> assay_value("Cc1cc(Nc2nc(C)cn3c(-c4cn[nH]c4)cnc23)sn1")
250
>>> assay_value("Cc1cc(Nc2nc(SC(C)(C)C)cn3c(-c4cn[nH]c4)cnc23)sn1")
5600

Query: // fetch EC50 given entry CCc1cn2c(-c3cn[nH]c3)cnc2c(Nc2cc(C)ns2)n1
Response: 850

Query: // fetch EC50 given entry Cc1cc(Nc2nc(C3CC3)cn3c(-c4cn[nH]c4)cnc23)sn1
Response: 2600
